# target or test system: CXCR3 (Homo sapiens, UniProt P49682)
# Construct: host or cells: CHO-K1 (cAMP Hunter CHOK1 CXCR3 Gi cell line)
# Sequence (P49682 1-368): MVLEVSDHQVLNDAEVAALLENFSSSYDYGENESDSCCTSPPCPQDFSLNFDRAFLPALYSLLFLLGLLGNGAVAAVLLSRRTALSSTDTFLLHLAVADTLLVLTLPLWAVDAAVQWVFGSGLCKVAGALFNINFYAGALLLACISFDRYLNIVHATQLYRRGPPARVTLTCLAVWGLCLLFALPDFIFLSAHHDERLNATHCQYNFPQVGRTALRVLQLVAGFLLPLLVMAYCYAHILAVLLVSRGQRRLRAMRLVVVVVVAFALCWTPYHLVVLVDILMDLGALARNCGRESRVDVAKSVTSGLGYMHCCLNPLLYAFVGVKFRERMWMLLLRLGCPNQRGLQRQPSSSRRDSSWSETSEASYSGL
# test description: CXCR3 cAMP agonist assay (cAMP Hunter CHOK1 CXCR3 Gi cell line, forskolin-stimulated, HitHunter cAMP detection)
# Type: cell-based
# condition notes: cAMP Hunter CHOK1 CXCR3 Gi cells, 20 μM forskolin, 30 minutes; read-out: Activity (CXCR3 cAMP agonist assay compound EC50)
pEC50: −log10 of the molar value.
measured attribute: pEC50

compound: O=C(CCC(=O)N1Cc2ccccc2CC1C(=O)NC(CCN1CCC(F)CC1)C(=O)Nc1ccc2c(c1)CCC2)c1ccccc1 (racemic)
pEC50: < 6.30

compound: Cc1cc(NC(=O)[C@H](CCN)NC(=O)[C@@H]2Cc3ccccc3CN2C(=O)CCC(=O)N2C3CCC2CN(C)C3)ccc1Cl
pEC50: < 6.30

Query: Request - read-out pEC50 | tested on CXCR3 (Homo sapiens, UniProt P49682) | compound `C[C@H]1CN(C(=O)CCC(=O)N2Cc3ccccc3C[C@H]2C(=O)N[C@@H](CCN)C(=O)Nc2ccc(Cl)c(Cl)c2F)CCN1C`
Reply: > 7.30

Query: Field entry: `Cc1ccc(NC(=O)[C@H](CCN)NC(=O)[C@@H]2Cc3ccccc3CN2C(=O)CCC(=O)c2ccccc2)cc1Cl`
Reply: > 7.30

Query: Field entry: `Cc1cc(NC(=O)[C@H](CCN)NC(=O)[C@@H]2Cc3ccccc3CN2C(=O)CCC(=O)N2CCC(F)(F)C2)ccc1Cl`
Reply: 6.60 to 7.30

Query: Field entry: `Cc1cc(NC(=O)[C@H](Cc2ccccn2)NC(=O)[C@@H]2Cc3ccccc3CN2C(=O)CCC(=O)c2ccccc2)ccc1Cl`
Reply: 6.60 to 7.30
